Below, each entry is listed alongside its reported fraction ligated.
B1: minF1; a variant is named by its letters at N, in order (parent)
chain: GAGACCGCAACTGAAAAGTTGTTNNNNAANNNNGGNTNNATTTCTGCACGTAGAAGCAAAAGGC

Variants of: B1
Assay: fraction ligated after 30 min (ligated reads / total reads); higher = more ligase activity
Conditions: with F1*subA RNA substrate (template-directed ligation), 42 °C
The answer should be a number; do not append a unit.

Solved cases below.
> print(dat)
                              item.sequence  recorded.number
1  GAGACCGCAACTGAAAAGTTGTTATCAGAAAGGTGGTTAATTTCTGCACGTAGAAGCAAAAGGC [ATCAAAGGGTA A28G G34T]          0.00211
2  GAGACCGCAACTGAAAAGTTGTATCAGATGATGGGTTGAATTTCTGCACGTAGAAGCAAAAGGC [TCAGGATGTGA T23A A29T]          0.00222
3  GAGACCGCAACTGAAAAGTTGTTATCGAAGATGGGTTGAATTTCTGCACGTAGAAGCAAAAGGC [ATCGGATGTGA]          0.00494
4  GAGACCGCAACTGAAAAGTTGTTATCAAAATTGGGTTGAATTTCTGCACGTAGAAGCAAAAGGC [ATCAATTGTGA]          0.00256

Form field: reported fraction ligated of GAGACCGCAACTGAAAAGTTGTTATCGAAATGGAGGTTAATTTCTGCACGTAGAAGCAAAAGGC [ATCGATGGGTA G34A]
0.00165

Form field: reported fraction ligated of GAGACCGCAACTGAAAAGTTGTTACAGAATGGAGGTTGAATTTCTGCACGTAGAAGCAAAAGGC [ACAGTGGATGA]
0.00257

Form field: reported fraction ligated of GAGACCGCAACTGAAAAGTTGTTACAGAATGATGGGTTAATTTCTGCACGTAGAAGCAAAAGGC [ACAGTGATGTA]
0.00194

Form field: reported fraction ligated of GAGACCGCAACTGAAAAGTTGTATCAGATGGATGGTTGAATTTCTGCACGTAGAAGCAAAAGGC [TCAGGGATTGA T23A A29T]
0.0045

Form field: reported fraction ligated of GAGACCGCAACTGAAAAGTTGTTATCAGAAATGGAGGTTATTTCTGCACGTAGAAGCAAAAGGC [ATCAAATGGTT A28G G35A T37G]
0.00104

Form field: reported fraction ligated of GAGACCGCAACTGAAAAGTTGTAAGAAATGGTGGGTTGAATTTCTGCACGTAGAAGCAAAAGGC [AGAAGGTGTGA T23A A29T]
0.00188

Form field: reported fraction ligated of GAGACCGCAACTGAAAAGTTGTTCAAAATGGATGGGTTGATTTCTGCACGTAGAAGCAAAAGGC [CAAAGGATGTG A29T]
0.0079

Form field: reported fraction ligated of GAGACCGCAACTGAAAAGTTGTTATCAGATGATGGGTTAATTTCTGCACGTAGAAGCAAAAGGC [ATCATGATGTA A28G]
0.00257
